Each entry below carries its reported pKd.
Target: T1, Human ANGPTL4(26-406)-FLAG-His6-Avi (human, UniProt Q9BY76 24-406, biotin on the C-terminal Avi tag in the biotinylated preparations (immobilised form in SET, ELISA and Octet))
T1 construct: also called full-length human ANGPTL4; hANGPTL4
T1 sequence: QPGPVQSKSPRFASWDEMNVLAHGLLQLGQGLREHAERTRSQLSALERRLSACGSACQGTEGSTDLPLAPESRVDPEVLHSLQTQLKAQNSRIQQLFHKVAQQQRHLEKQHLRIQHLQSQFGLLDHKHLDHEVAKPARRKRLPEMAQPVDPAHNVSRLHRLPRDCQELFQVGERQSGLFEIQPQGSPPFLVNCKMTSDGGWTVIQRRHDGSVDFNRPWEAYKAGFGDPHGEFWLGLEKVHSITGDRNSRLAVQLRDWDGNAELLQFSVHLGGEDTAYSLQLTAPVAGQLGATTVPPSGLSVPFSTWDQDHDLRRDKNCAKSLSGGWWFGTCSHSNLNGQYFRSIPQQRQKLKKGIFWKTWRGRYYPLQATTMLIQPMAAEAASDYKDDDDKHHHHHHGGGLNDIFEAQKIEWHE
Assay: SET assay
pKd: −log10 of the molar value.
PROPERTY_MEASURED: pKd

- BINDER: "MOR023400 (antibody, human IgG1, kappa, V domains shown, built on the parent antibody for IgG conversion MOR022771 with residues 48-66 of the heavy chain replaced; Parent Fab MOR021830) VH: EVQLLESGGGLVQPGGSLRLSCAASGFTFSSYWMHWVRQAPGKGLEWVSGIPYQGPAINYADSVKGRFTISRDNSKNTLYLQMNSLRAEDTAVYYCARDSYIYDLHWGFDNWGQGTLVTVSS VL: DIQMTQSPSSLSASVGDRVTITCRASQDISSYLNWYQQKPGKAPKLLIYAASRLQSGVPSRFSGSGSGTDFTLTISSLQPEDFATYYCQQSYTHPYTFGQGTKVEIKR"
  ASSAY_VALUE: 12.00
- BINDER: "MOR023413 (antibody, human IgG1, kappa, V domains shown, as MOR023407: built on MOR022771, limits derived) VH: EVQLLESGGGLVQPGGSLRLSCAASGFTFSSYWMHWVRQAPGKGLEWVSGISYSGSSTNYADSVKGRFTISRDNSKNTLYLQMNSLRAEDTAVYYCARDSYIYDLHWGFDNWGQGTLVTVSS VL: DIQMTQSPSSLSASVGDRVTITCRASQDISSYLNWYQQKPGKAPKLLIYAASRLQSGVPSRFSGSGSGTDFTLTISSLQPEDFATYYCQQYYYPPYTFGQGTKVEIKR"
  ASSAY_VALUE: "> 12.00"
- BINDER: "MOR023410 (antibody, human IgG1, kappa, V domains shown, as MOR023407: built on MOR022771, limits derived) VH: EVQLLESGGGLVQPGGSLRLSCAASGFTFSSYWMHWVRQAPGKGLEWVSGISYSGSSTNYADSVKGRFTISRDNSKNTLYLQMNSLRAEDTAVYYCARDSYIYDLHWGFDNWGQGTLVTVSS VL: DIQMTQSPSSLSASVGDRVTITCRASQDISSYLNWYQQKPGKAPKLLIYAASRLQSGVPSRFSGSGSGTDFTLTISSLQPEDFATYYCQQAYFAPYTFGQGTKVEIKR"
  ASSAY_VALUE: "> 12.00"

FYI, the data here is from patent US20160108110A1.
